// values below are reported 24 h stability Remain (%)
# PROCEDURE_TEXT: Stability of QC samples in rat plasma (24 h, freeze-thaw, 4 weeks)
# Type: in vitro ADME
# EXPERIMENTAL_SETUP: low concentration level (3-30 ng·mL^−1), 24 hours at 20°C, six replicates
Please reply with the bare figure in % and do not write the unit itself.

Below are worked cases with known answers.
O=C(C=Cc1ccc(O)c(O)c1)OC1CC(O)(C(=O)O)CC(O)C1OC(=O)C=Cc1ccc(O)c(O)c1 (centres unmarked) : 91.7
O=C(O)/C=C/c1ccc(O)c(O)c1 : 81.1
O=c1c(O[C@@H]2O[C@H](CO)[C@@H](O)[C@H](O)[C@H]2O)c(-c2ccc(O)c(O)c2)oc2cc(O)cc(O)c12 : 84.4

Suppose we examine the molecule C=C1[C@H](OC(=O)/C=C(\C)CC)C[C@@H](C(C)C)[C@@H]2[C@@H]([C@@H](C)OC(C)=O)C(=O)C[C@@H]12 ; what 24 h stability Remain (%) value has been reported? 100

Same thing, different molecule: O=C(/C=C/c1ccc(O)c(O)c1)O[C@H]1[C@H](O)C[C@](O)(C(=O)O)C[C@H]1O 98.4

====

// values below are reported Tmax
# PROCEDURE_TEXT: Pharmacokinetic study in rats after intragastric administration of Farfarae Flos extract (plasma, LC-MS/MS)
# Type: in vivo
# EXPERIMENTAL_SETUP: male; rat plasma, oral Farfarae Flos extract 7.8 g·kg^−1, mean ± SD
Please reply with the bare figure in min and do not write the unit itself.

Below are worked cases with known answers.
O=C(/C=C/c1ccc(O)c(O)c1)O[C@H]1[C@H](O)C[C@](O)(C(=O)O)C[C@H]1O [CCLA, cryptochlorogenic acid] : 23.4
O=C(C=Cc1ccc(O)c(O)c1)OC1CC(O)(C(=O)O)CC(O)C1OC(=O)C=Cc1ccc(O)c(O)c1 (centres unmarked) [IAC, isochlorogenic acid C] : 21
O=C(/C=C/c1ccc(O)c(O)c1)O[C@@H]1C[C@](O)(C(=O)O)C[C@@H](O)[C@H]1O [CLA, chlorogenic acid] : 22.8

Suppose we examine the compound C[C@@H]1O[C@@H](OC[C@H]2O[C@@H](Oc3c(-c4ccc(O)c(O)c4)oc4cc(O)cc(O)c4c3=O)[C@H](O)[C@@H](O)[C@@H]2O)[C@H](O)[C@H](O)[C@H]1O [Rutin, rutin] ; what Tmax value has been reported? 19.2

Same thing, different compound: O=C(O)/C=C/c1ccc(O)c(O)c1 [Caffeic acid, caffeic acid] 12.6

Same thing, different compound: C=C1[C@H](OC(=O)/C=C(\C)CC)C[C@@H](C(C)C)[C@@H]2[C@@H]([C@@H](C)OC(C)=O)C(=O)C[C@@H]12 [Tussilagone, tussilagone] 24

Same thing, different compound: O=c1c(O[C@@H]2O[C@H](CO)[C@@H](O)[C@H](O)[C@H]2O)c(-c2ccc(O)c(O)c2)oc2cc(O)cc(O)c12 [Isoquercitrin, isoquercitrin] 16.2

Same thing, different compound: O=C(/C=C/c1ccc(O)c(O)c1)O[C@@H]1C[C@@](O)(C(=O)O)C[C@@H](O)[C@@H]1O [NCLA, neochlorogenic acid] 21.6

====

# PROCEDURE_TEXT: Pharmacokinetic study in rats after intragastric administration of Farfarae Flos extract (plasma, LC-MS/MS)
# Assay type: in vivo
# EXPERIMENTAL_SETUP: male; rat plasma, oral Farfarae Flos extract 7.8 g·kg^−1, mean ± SD; read-out: MRT(0–24h)
# Method: A high-performance liquid chromatography instrument was used to separate three types of compounds (Agilent 1200 series, USA). The HPLC instrument is composed of four parts; a G1322A degasser, G1312A Bin Pump, G1367B auto-sampler, and G1316A thermostatic column compartment. […] Quantitative analysis of all samples was performed on Sciex API 3200 with an electrospray ionization (ESI) source. […] Ten analyzed compounds and three ISs were optimized during multiple reactions monitoring (MRM). […]
ENDPOINT: MRT last
I'd appreciate it if you wrote the number followed by its unit.

Below are worked cases with known answers.
O=C(C=Cc1ccc(O)c(O)c1)OC1CC(O)(C(=O)O)CC(O)C1OC(=O)C=Cc1ccc(O)c(O)c1 (stereo not shown) : 8.8 h
O=C(/C=C/c1ccc(O)c(O)c1)O[C@@H]1C[C@@](O)(C(=O)O)C[C@@H](O)[C@@H]1O : 6.33 h
O=c1c(O[C@@H]2O[C@H](CO)[C@@H](O)[C@H](O)[C@H]2O)c(-c2ccc(O)c(O)c2)oc2cc(O)cc(O)c12 : 2.81 h

Suppose we examine the compound O=C(O)/C=C/c1ccc(O)c(O)c1 ; what MRT last value has been reported? 4.81 h
